Would you kindly list ratio IC50 hV2/hV1a for each of these compounds?
- Tgt: human V1a receptor (Homo sapiens, UniProt P37288)
- Construct: expressed in transfected cells; host or cells: CHO K1 (ATCC), also stably transfected with a modified aequorin
- Sequence (P37288 whole entry): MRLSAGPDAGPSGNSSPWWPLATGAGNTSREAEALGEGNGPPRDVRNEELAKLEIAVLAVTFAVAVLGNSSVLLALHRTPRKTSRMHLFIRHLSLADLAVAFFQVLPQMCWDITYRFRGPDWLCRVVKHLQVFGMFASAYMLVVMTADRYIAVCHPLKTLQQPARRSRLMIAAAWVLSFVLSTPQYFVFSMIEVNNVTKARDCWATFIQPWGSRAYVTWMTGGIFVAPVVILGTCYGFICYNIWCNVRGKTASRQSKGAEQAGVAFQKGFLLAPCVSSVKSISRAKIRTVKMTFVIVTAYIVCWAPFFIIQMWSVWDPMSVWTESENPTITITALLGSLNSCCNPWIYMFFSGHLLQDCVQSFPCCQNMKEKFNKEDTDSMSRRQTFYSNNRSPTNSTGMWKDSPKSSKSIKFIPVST
- Experiment summary: Cellular in vitro assay for determining vasopressin receptor activity (V1a, aequorin luminescence)
- Assay type: cell-based
- Measurement parameters: selectivity ratio IC50 hV2 / IC50 hV1a
Lab note: jot the number down without any unit.

Look up ratio IC50 hV2/hV1a of C[C@@H](O)c1nc(Cn2nc(-c3ccc(Cl)cc3)n(C[C@H](O)C(F)(F)F)c2=O)nn1-c1ccccn1 [Example 23] and report it. 1.2

Look up ratio IC50 hV2/hV1a of COc1cccnc1-n1nc(Cn2nc(-c3ccc(Cl)cc3)n(C[C@H](O)C(F)(F)F)c2=O)nc1[C@H](C)O [Example 8] and report it. 2.6

Look up ratio IC50 hV2/hV1a of C[C@@H](O)c1nc(Cn2nc(-c3ccc(Cl)cc3)n(C[C@H](O)C(F)(F)F)c2=O)nn1-c1c(Cl)cncc1Cl [Example 4] and report it. 6.7

Look up ratio IC50 hV2/hV1a of C[C@H](O)c1nc(Cn2nc(-c3ccc(Cl)cc3)n(C[C@H](O)C(F)(F)F)c2=O)nn1-c1ccncc1 [Example 18] and report it. 7.0

Look up ratio IC50 hV2/hV1a of C[C@H](O)c1nc(Cn2nc(-c3ccc(Cl)cc3)n(C[C@H](O)C(F)(F)F)c2=O)nn1-c1ccncc1Cl [Example 7] and report it. 5.3

Look up ratio IC50 hV2/hV1a of C[C@H](O)c1nc(Cn2nc(-c3ccc(Cl)cc3)n(C[C@H](O)C(F)(F)F)c2=O)nn1-c1nccs1 [Example 10] and report it. 24.7

Look up ratio IC50 hV2/hV1a of C[C@@H](O)c1nc(Cn2nc(-c3ccc(Cl)cc3)n(C[C@H](O)C(F)(F)F)c2=O)nn1-c1ncccc1Cl [Example 5] and report it. 20.0

* * *

- Tgt: human V1a receptor (Homo sapiens, UniProt P37288)
- Construct: expressed in transfected cells; host or cells: CHO K1 (ATCC), also stably transfected with a modified aequorin
- Experiment summary: Cellular in vitro assay for determining vasopressin receptor activity (V1a, aequorin luminescence)
- Format: cell-based
- Measurement parameters: selectivity ratio IC50 hV2 / IC50 hV1a
Observation type: ratio IC50 hV2/hV1a
Lab note: jot the number down without any unit.

Look up ratio IC50 hV2/hV1a of CC(O)c1nc(Cn2nc(-c3ccc(Cl)cc3)n(C[C@H](O)C(F)(F)F)c2=O)nn1-c1cccnc1 (mixture of isomers) [Example 24] and report it. 15.8

Look up ratio IC50 hV2/hV1a of C[C@@H](O)c1nc(Cn2nc(-c3ccc(Cl)cc3)n(C[C@H](O)C(F)(F)F)c2=O)nn1-c1ncccc1OC(F)(F)F and report it. 29.7

Look up ratio IC50 hV2/hV1a of C[C@H](O)c1nc(Cn2nc(-c3ccc(Cl)cc3)n(C[C@H](O)C(F)(F)F)c2=O)nn1-c1c(Cl)cncc1Cl and report it. 5.9

Look up ratio IC50 hV2/hV1a of C[C@H](O)c1nc(Cn2nc(-c3ccc(Cl)cc3)n(C[C@H](O)C(F)(F)F)c2=O)nn1-c1ccc(Cl)cn1 and report it. 1.4

Look up ratio IC50 hV2/hV1a of CC(O)c1nc(Cn2nc(-c3ccc(Cl)cc3)n(C[C@H](O)C(F)(F)F)c2=O)nn1-c1cncc(Cl)c1 (mixture of isomers) [Example 27] and report it. 1.5

Look up ratio IC50 hV2/hV1a of CC(O)c1nc(Cn2nc(-c3ccc(Cl)cc3)n(C[C@H](O)C(F)(F)F)c2=O)nn1-c1cncc(Cl)c1 (single isomer, unassigned) [Example 29] and report it. 2.0

Recorded values, source patent US10526314B2.
